Listed here are compounds together with their documented TGI.
- Test system: SW-620 colon
- Experiment Description: NCI tumour cell line growth inhibition, 48 h

# annotated cases, reported TGI shown
compound=COc1cc(/C=C2\C(=O)N(C(=O)c3ccc(NC(C)=O)cc3)N=C2C)ccc1O reported_result="> 100 µM"
compound="CC(=O)NNC(=O)C1CCCCN1 (configuration not stated)" reported_result="> 100 µM"
compound=CNc1nnc(CNc2ccc(-c3nnc(NC)n3N)cc2)n1N reported_result="> 100 µM"
compound=Cc1cc(C)nc(SCCc2cccc[n+]2C)n1 reported_result="> 100 µM"
compound="O=C(CCC(C(=O)c1ccccc1)c1ccccc1)c1ccccc1 (configuration not stated)" reported_result="> 100 µM"
compound=C=C(CN1CCN(c2cccc(C(F)(F)F)n2)CC1)c1ccc(C(=S)Nc2ccccc2N)cc1 reported_result="72.2 µM"
compound=CC[C@@]1(O)C(=O)OCc2c1cc1n(c2=O)Cc2c-1nc1cc3c(cc1c2C)OCO3 reported_result="> 100 µM"
compound=Cc1cn2c(/C=N/N=C(N)N)c(-c3cccnc3)nc2s1 reported_result="35.2 µM"
compound=O=c1c2c3c(sc2nc(N/N=C/c2ccc(Br)cc2)n1Cc1ccccc1)CCCC3 reported_result="> 100 µM"
compound="O=S(=O)(c1ccccc1)C1(CCC2OCCO2)C=CC2(CC1)OCCO2 (configuration not stated)" reported_result="> 100 µM"

input: TGI for CCCCCCCCCCCCCCCCOCC(CCl)OP(=O)(O)OP(=O)(O)OCC1OC(n2ccc(N)nc2=O)C(O)C1O (configuration not stated) ?
output: > 100 µM

input: TGI for `Cc1ccc(NC2=N/C(=C/c3ccccc3)C(Cl)=N2)cc1` ?
output: > 100 µM

input: TGI for `CCOC(=O)/C(=C(/C)NCC(C)C)c1cc(O)c(O)c2c(C)cc(=O)[nH]c12` ?
output: > 100 µM

input: TGI for `CSCCOC(=O)C(=[N+]=[N-])c1ccc([N+](=O)[O-])cc1` ?
output: > 100 µM

input: TGI for COC(=O)C1C2CC3C1C3C2C(=O)OC (configuration not stated) ?
output: > 100 µM
